# SYSTEM_NAME: catalytic domain of wild-type NA2009
# MEASUREMENT_SETUP: wt; 50 mM MES (or ACES), pH 6.15, 25 °C
EXPERIMENTAL_READOUT: Kd (nM)
Supply the numeric figure in nM, leaving out any unit text.

Recorded Kd for CCC(CC)O[C@@H]1C=C(C(=O)O)C[C@H](N)[C@H]1NC(C)=O [oseltamivir carboxylate] with catalytic domain of wild-type NA2009, please? 140

----------
# SYSTEM_NAME: wt NA2009
# MEASUREMENT_SETUP: wt NA2009; mean ± s.d., two independent experiments; 37 °C
EXPERIMENTAL_READOUT: Ki (nM)
Record the value in nM, omitting the unit from your answer.

Ki lookup needed for CCC(CC)O[C@@H]1C=C(C(=O)O)C[C@H](N)[C@H]1NC(C)=O [oseltamivir carboxylate] , thanks. 24
